Test system: RAW264.7 cells
Details: peptide 150 μg/mL, 24 h, WST-1, mean ± SD, three repeats
Where a SMILES comes first, the peptide text is derived from it.
Cell survival rate, RAW264.7 values by entry
Metric: Cell survival rate, RAW264.7 (%)

Compound	Test Value
CC[C@H](C)[C@H](NC(=O)[C@H](CCCNC(=N)N)NC(=O)[C@H](CCCNC(=N)N)NC(=O)[C@H](Cc1ccccc1)NC(=O)[C@H](CC(C)C)NC(=O)[C@H](CCCNC(=N)N)NC(=O)[C@@H](N)CCCNC(=N)N)C(=O)N[C@@H](CC(C)C)C(=O)N[C@@H](CCCNC(=N)N)C(=O)N[C@H](Cc1c[nH]c2ccccc12)C(=O)N[C@@H](CC(C)C)C(N)=O [RW-BP100-10D] (HELM PEPTIDE1{R.R.L.F.R.R.I.L.R.[dW].L.[am]}$$$$V2.0)	92.19
CC[C@@H](C)[C@@H](NC(=O)[C@H](CCCNC(=N)N)NC(=O)[C@H](CCCNC(=N)N)NC(=O)[C@H](Cc1ccccc1)NC(=O)[C@H](CC(C)C)NC(=O)[C@H](CCCNC(=N)N)NC(=O)[C@@H](N)CCCNC(=N)N)C(=O)N[C@@H](CC(C)C)C(=O)N[C@@H](CCCNC(=N)N)C(=O)N[C@@H](Cc1c[nH]c2ccccc12)C(=O)N[C@@H](CC(C)C)C(N)=O [RW-BP100-7D] (HELM PEPTIDE1{R.R.L.F.R.R.[dI].L.R.W.L.[am]}$$$$V2.0)	93.74
CC[C@H](C)[C@H](NC(=O)[C@H](CCCNC(=N)N)NC(=O)[C@@H](CCCNC(=N)N)NC(=O)[C@H](Cc1ccccc1)NC(=O)[C@H](CC(C)C)NC(=O)[C@H](CCCNC(=N)N)NC(=O)[C@@H](N)CCCNC(=N)N)C(=O)N[C@@H](CC(C)C)C(=O)N[C@@H](CCCNC(=N)N)C(=O)N[C@@H](Cc1c[nH]c2ccccc12)C(=O)N[C@@H](CC(C)C)C(N)=O [RW-BP100-5D] (HELM PEPTIDE1{R.R.L.F.[dR].R.I.L.R.W.L.[am]}$$$$V2.0)	39.05
CC[C@H](C)[C@H](NC(=O)[C@H](CCCNC(=N)N)NC(=O)[C@H](CCCNC(=N)N)NC(=O)[C@H](Cc1ccccc1)NC(=O)[C@@H](CC(C)C)NC(=O)[C@H](CCCNC(=N)N)NC(=O)[C@@H](N)CCCNC(=N)N)C(=O)N[C@@H](CC(C)C)C(=O)N[C@@H](CCCNC(=N)N)C(=O)N[C@@H](Cc1c[nH]c2ccccc12)C(=O)N[C@@H](CC(C)C)C(N)=O [RW-BP100-3D] (HELM PEPTIDE1{R.R.[dL].F.R.R.I.L.R.W.L.[am]}$$$$V2.0)	7.69
CC[C@H](C)[C@H](NC(=O)[C@H](CCCNC(=N)N)NC(=O)[C@H](CCCNC(=N)N)NC(=O)[C@@H](Cc1ccccc1)NC(=O)[C@H](CC(C)C)NC(=O)[C@H](CCCNC(=N)N)NC(=O)[C@@H](N)CCCNC(=N)N)C(=O)N[C@@H](CC(C)C)C(=O)N[C@@H](CCCNC(=N)N)C(=O)N[C@@H](Cc1c[nH]c2ccccc12)C(=O)N[C@@H](CC(C)C)C(N)=O [RW-BP100-4D] (HELM PEPTIDE1{R.R.L.[dF].R.R.I.L.R.W.L.[am]}$$$$V2.0)	78.02
CC[C@H](C)[C@H](NC(=O)[C@H](CCCNC(=N)N)NC(=O)[C@H](CCCNC(=N)N)NC(=O)[C@H](Cc1ccccc1)NC(=O)[C@H](CC(C)C)NC(=O)[C@H](CCCNC(=N)N)NC(=O)[C@@H](N)CCCNC(=N)N)C(=O)N[C@@H](CC(C)C)C(=O)N[C@H](CCCNC(=N)N)C(=O)N[C@@H](Cc1c[nH]c2ccccc12)C(=O)N[C@@H](CC(C)C)C(N)=O [RW-BP100-9D] (HELM PEPTIDE1{R.R.L.F.R.R.I.L.[dR].W.L.[am]}$$$$V2.0)	91.33
CC[C@H](C)[C@H](NC(=O)[C@H](CCCNC(=N)N)NC(=O)[C@H](CCCNC(=N)N)NC(=O)[C@H](Cc1ccccc1)NC(=O)[C@H](CC(C)C)NC(=O)[C@H](CCCNC(=N)N)NC(=O)[C@@H](N)CCCNC(=N)N)C(=O)N[C@@H](CC(C)C)C(=O)N[C@@H](CCCNC(=N)N)C(=O)N[C@@H](Cc1c[nH]c2ccccc12)C(=O)N[C@H](CC(C)C)C(N)=O [RW-BP100-11D] (HELM PEPTIDE1{R.R.L.F.R.R.I.L.R.W.[dL].[am]}$$$$V2.0)	83.27
